system: A549; experiment: Cytotoxicity against human A549 cells assessed as reduction of cell density incubated for 4 hrs in hypoxic (anoxic) condition measured 5 days post dose by SRB assay; assay type: functional, cell-based
MEASURED_ENDPOINT: pIC50
# pIC50: negative log10 of molar concentration; output just the value

# pIC50 lookup, item COc1cc2cc(C(=O)N3CC(COS(=O)(=O)Cc4ccccc4)c4c3cc([N+](=O)[O-])c3ccccc43)[nH]c2c(OC)c1OC (stereo unspecified)
6.40

* * *

system: A-375; test: Cytotoxicity against human A375 cells assessed as reduction of cell density incubated for 4 hrs in hypoxic (anoxic) condition measured 5 days post dose by SRB assay; assay type: functional, cell-based
MEASURED_ENDPOINT: pIC50
# pIC50: negative log10 of molar concentration; output just the value

# pIC50 lookup, item COc1cc2cc(C(=O)N3CC(COS(=O)(=O)Cc4ccccc4)c4c3cc([N+](=O)[O-])c3ccccc43)[nH]c2c(OC)c1OC (stereo unspecified)
6.39

* * *

Provide the recorded pIC50 for the entries that follow.
system: HT-29; assay: Cytotoxicity against human HT-29 cells assessed as reduction of cell density incubated for 4 hrs in oxic (aerobic) condition measured 5 days post dose by SRB assay; format: functional, cell-based
# pIC50: negative log10 of molar concentration; output just the value

# pIC50 lookup, item Cc1ccc(S(=O)(=O)OCC2CN(C(=O)c3cc4cc(OCCO)ccc4[nH]3)c3cc([N+](=O)[O-])c4ccccc4c32)cc1 (stereo not given)
5.48

# pIC50 lookup, item COc1ccc2[nH]c(C(=O)N3CC(CCl)c4c3cc([N+](=O)[O-])c3ccccc43)cc2c1 (stereo not given)
5.01

# pIC50 lookup, item COc1cc2cc(C(=O)N3CC(COS(=O)(=O)c4ccc(C)cc4)c4c3cc([N+](=O)[O-])c3ccccc43)[nH]c2c(OC)c1OC (stereo not given)
4.92

# pIC50 lookup, item COc1cc2cc(C(=O)N3CC(COS(=O)(=O)Cc4ccccc4)c4c3cc([N+](=O)[O-])c3ccccc43)[nH]c2c(OC)c1OC (stereo not given)
5.01

# pIC50 lookup, item O=C(c1cc2cc(OCCO)ccc2[nH]1)N1CC(COS(=O)(=O)Cc2ccccc2)c2c1cc([N+](=O)[O-])c1ccccc21 (stereo not given)
5.74

# pIC50 lookup, item COc1cc2cc(C(=O)N3CC(COS(=O)(=O)C4CCCCC4)c4c3cc([N+](=O)[O-])c3ccccc43)[nH]c2c(OC)c1OC (stereo not given)
5.00

# pIC50 lookup, item COc1ccc2[nH]c(C(=O)N3CC(COS(=O)(=O)c4ccc(C)cc4)c4c3cc([N+](=O)[O-])c3ccccc43)cc2c1 (stereo not given)
5.19

# pIC50 lookup, item CN(C)CCOc1ccc2[nH]c(C(=O)N3CC(COS(=O)(=O)C4CCCCC4)c4c3cc([N+](=O)[O-])c3ccccc43)cc2c1 (stereo not given)
6.39

# pIC50 lookup, item CN(C)CCOc1ccc2[nH]c(C(=O)N3CC(COS(=O)(=O)Cc4ccccc4)c4c3cc([N+](=O)[O-])c3ccccc43)cc2c1 (stereo not given)
6.62

# pIC50 lookup, item COc1ccc(/C=C/C(=O)N2CC(CCl)c3c2cc([N+](=O)[O-])c2ccccc32)cc1O (stereo not given)
5.77

# pIC50 lookup, item O=C(c1cc2cc(OCCO)ccc2[nH]1)N1CC(CCl)c2c1cc([N+](=O)[O-])c1ccccc21 (stereo not given)
5.18

# pIC50 lookup, item COc1cc2cc(C(=O)N3CC(CCl)c4c3cc([N+](=O)[O-])c3ccccc43)[nH]c2c(OC)c1OC (stereo not given)
5.47

# pIC50 lookup, item COc1cc2cc(C(=O)N3CC(COS(C)(=O)=O)c4c3cc([N+](=O)[O-])c3ccccc43)[nH]c2c(OC)c1OC (stereo not given)
5.82

# pIC50 lookup, item CN(C)CCOc1ccc2[nH]c(C(=O)N3CC(CCl)c4c3cc([N+](=O)[O-])c3ccccc43)cc2c1 (stereo not given)
6.33

# pIC50 lookup, item COc1ccc(/C=C/C(=O)N2CC(COS(=O)(=O)Cc3ccccc3)c3c2cc([N+](=O)[O-])c2ccccc32)cc1O (stereo not given)
6.00

* * *

system: A549; test: Cytotoxicity against human A549 cells after 24 hrs; assay type: functional, cell-based; settings: A549, 24 h
MEASURED_ENDPOINT: IC50 (nM)
I only need the number, in nM, no unit after it.

# IC50 lookup, item CN(C)CCOc1ccc2[nH]c(C(=O)N3C[C@@H](CCl)c4c3cc(O)c3ccccc43)cc2c1
0.026

* * *

system: HT-29; test: Hypoxic cytotoxicity ratio, ratio of IC50 for human HT-29 cells in oxic (aerobic) condition to IC50 for human HT-29 cells in hypoxic (anoxic) conditions; format: functional
MEASURED_ENDPOINT: Ratio IC50
Number, no unit, nothing else.

# Ratio IC50 lookup, item COc1ccc2[nH]c(C(=O)N3CC(COS(=O)(=O)c4ccc(C)cc4)c4c3cc([N+](=O)[O-])c3ccccc43)cc2c1 (stereo not given)
7.9

# Ratio IC50 lookup, item COc1cc2cc(C(=O)N3CC(COS(=O)(=O)Cc4ccccc4)c4c3cc([N+](=O)[O-])c3ccccc43)[nH]c2c(OC)c1OC (stereo not given)
37

# Ratio IC50 lookup, item COc1cc2cc(C(=O)N3CC(COS(C)(=O)=O)c4c3cc([N+](=O)[O-])c3ccccc43)[nH]c2c(OC)c1OC (stereo not given)
4.6

# Ratio IC50 lookup, item COc1cc2cc(C(=O)N3CC(COS(=O)(=O)C4CCCCC4)c4c3cc([N+](=O)[O-])c3ccccc43)[nH]c2c(OC)c1OC (stereo not given)
26

# Ratio IC50 lookup, item CN(C)CCOc1ccc2[nH]c(C(=O)N3CC(COS(=O)(=O)Cc4ccccc4)c4c3cc([N+](=O)[O-])c3ccccc43)cc2c1 (stereo not given)
4

* * *

system: C-33-A; experiment: Cytotoxicity against human C33A cells assessed as reduction of cell density incubated for 4 hrs in oxic (aerobic) condition measured 5 days post dose by SRB assay; format: functional, cell-based
MEASURED_ENDPOINT: pIC50
# pIC50: negative log10 of molar concentration; output just the value

# pIC50 lookup, item COc1cc2cc(C(=O)N3CC(COS(=O)(=O)Cc4ccccc4)c4c3cc([N+](=O)[O-])c3ccccc43)[nH]c2c(OC)c1OC (stereo unspecified)
6.37

* * *

test system: HT-29; experiment: Cytotoxicity against human HT-29 cells assessed as reduction of cell density incubated for 4 hrs in hypoxic (anoxic) condition measured 5 days post dose by SRB assay; format: functional, cell-based
MEASURED_ENDPOINT: pIC50
# pIC50: negative log10 of molar concentration; output just the value

# pIC50 lookup, item CN(C)CCOc1ccc2[nH]c(C(=O)N3CC(COS(=O)(=O)C4CCCCC4)c4c3cc([N+](=O)[O-])c3ccccc43)cc2c1 (stereo not given)
6.70

# pIC50 lookup, item O=C(c1cc2cc(OCCO)ccc2[nH]1)N1CC(CCl)c2c1cc([N+](=O)[O-])c1ccccc21 (stereo not given)
5.24

# pIC50 lookup, item COc1cc2cc(C(=O)N3CC(CCl)c4c3cc([N+](=O)[O-])c3ccccc43)[nH]c2c(OC)c1OC (stereo not given)
5.80

# pIC50 lookup, item COc1ccc2[nH]c(C(=O)N3CC(CCl)c4c3cc([N+](=O)[O-])c3ccccc43)cc2c1 (stereo not given)
5.89

# pIC50 lookup, item COc1cc2cc(C(=O)N3CC(COS(=O)(=O)C4CCCCC4)c4c3cc([N+](=O)[O-])c3ccccc43)[nH]c2c(OC)c1OC (stereo not given)
6.36

# pIC50 lookup, item Cc1ccc(S(=O)(=O)OCC2CN(C(=O)c3cc4cc(OCCO)ccc4[nH]3)c3cc([N+](=O)[O-])c4ccccc4c32)cc1 (stereo not given)
5.57

# pIC50 lookup, item O=C(c1cc2cc(OCCO)ccc2[nH]1)N1CC(COS(=O)(=O)Cc2ccccc2)c2c1cc([N+](=O)[O-])c1ccccc21 (stereo not given)
6.18

# pIC50 lookup, item COc1ccc2[nH]c(C(=O)N3CC(COS(=O)(=O)c4ccc(C)cc4)c4c3cc([N+](=O)[O-])c3ccccc43)cc2c1 (stereo not given)
6.15

# pIC50 lookup, item COc1ccc(/C=C/C(=O)N2CC(COS(=O)(=O)Cc3ccccc3)c3c2cc([N+](=O)[O-])c2ccccc32)cc1O (stereo not given)
6.00

# pIC50 lookup, item CN(C)CCOc1ccc2[nH]c(C(=O)N3CC(CCl)c4c3cc([N+](=O)[O-])c3ccccc43)cc2c1 (stereo not given)
6.32

# pIC50 lookup, item CN(C)CCOc1ccc2[nH]c(C(=O)N3CC(COS(=O)(=O)Cc4ccccc4)c4c3cc([N+](=O)[O-])c3ccccc43)cc2c1 (stereo not given)
7.10

# pIC50 lookup, item COc1ccc(/C=C/C(=O)N2CC(CCl)c3c2cc([N+](=O)[O-])c2ccccc32)cc1O (stereo not given)
6.23

# pIC50 lookup, item COc1cc2cc(C(=O)N3CC(COS(C)(=O)=O)c4c3cc([N+](=O)[O-])c3ccccc43)[nH]c2c(OC)c1OC (stereo not given)
6.51

# pIC50 lookup, item COc1cc2cc(C(=O)N3CC(COS(=O)(=O)c4ccc(C)cc4)c4c3cc([N+](=O)[O-])c3ccccc43)[nH]c2c(OC)c1OC (stereo not given)
6.33

# pIC50 lookup, item COc1cc2cc(C(=O)N3CC(COS(=O)(=O)Cc4ccccc4)c4c3cc([N+](=O)[O-])c3ccccc43)[nH]c2c(OC)c1OC (stereo not given)
6.44
